Ref: patent US10100058B2

Recorded IC50 by entry
molecular target: recombinant CaMKIIδ (Homo sapiens (Human)); assay: CaMKIIδ biochemical assay (HTRF); conditions: 10 pM CaMKIIδ, 110 nM calmodulin, 12 μM ATP, 1 hour; read-out: CAMKIID-HTRF-384V2 (IC50 - nM)
# output: bare number, implied unit nM

>>> test_value("CC(CN)NC(=O)c1ccnc(-c2cnn3ccc(-c4ccccc4)nc23)c1 (stereo not drawn) [Example 62]")
216
>>> test_value("O=C(c1ccnc(-c2cnn3ccc(-c4ccccc4)nc23)c1)N1CCCCC12CCCNC2 (stereo not drawn) [Example 68]")
26.3
>>> test_value("CCN(CC)[C@@H](C)CNC(=O)c1cc(NS(=O)(=O)C2CC2)nc(-c2cnn3ccc(-c4cccs4)nc23)c1 [Example 180]")
0.47
>>> test_value("CCN(CC)[C@@H](C)CNC(=O)c1cc(NC[C@@H](C)O)nc(-c2cnn3ccc(-c4cccs4)nc23)c1 [Example 202]")
0.14
>>> test_value("CCN(CC)[C@@H](C)CNC(=O)c1cc(-c2cnn3ccc(-c4cccs4)nc23)nc(N2CC(O)(C(F)(F)F)C2)c1 [Example 219]")
0.21

Prompt: Output measured IC50 for this item: Cc1cc(C(=O)N2CCC[C@@H]2CN)cc(-c2cnn3ccc(-c4ccccc4)nc23)n1 [Example 131]
Response: 56.1

Prompt: Output measured IC50 for this item: CCN(CC)[C@@H](C)CNC(=O)c1cc(-c2cnn3ccc(-c4cccs4)nc23)nc(N2CCC[C@@H]2C(N)=O)c1 [Example 269]
Response: 6.05

Prompt: Output measured IC50 for this item: COC1CN(c2cc(C(=O)N3[C@H]4CCNC[C@@H]3CC4)cc(-c3cnn4ccc(-c5cccs5)nc34)n2)C1 [Example 326]
Response: 3.29

Prompt: Output measured IC50 for this item: CCN(CC)[C@@H](C)CNC(=O)c1cc(-c2ncco2)nc(-c2cnn3ccc(-c4cccs4)nc23)c1 [Example 339]
Response: 0.35

Prompt: Output measured IC50 for this item: CCNC(CC)CNC(=O)c1ccnc(-c2cnn3ccc(-c4ccccc4)nc23)c1 (stereo not drawn) [Example 54]
Response: 13.4

Prompt: Output measured IC50 for this item: C[C@@H](CNC(=O)c1ccnc(-c2cnn3ccc(-c4cccs4)nc23)c1)NCC(F)F [Example 14]
Response: 23.8
